# Tested on: Tetranychus urticae
# method: Tetranychus urticae (Two-spotted spider mite) leaf disc test
# Assay type: in vivo
# testConditions: foliar, 192 h, 200 ppm sprayed on bean leaf discs, mite populations of mixed ages, 8 days, egg, larval and adult mortality

>  <compound>
CN(C(=O)c1ccncc1)c1cccc(C(=O)Nc2c(Br)cc(C(F)(C(F)(F)F)C(F)(F)F)cc2Br)c1F [Compound 8]

>  <pest or weed control at 200 ppm>
≥ 80%

$$$$
>  <compound>
CCN(C(=O)c1ccncc1)c1cccc(C(=O)Nc2c(C)cc(C(F)(C(F)(F)F)C(F)(F)F)cc2Cl)c1F [Compound 14]

>  <pest or weed control at 200 ppm>
≥ 80%

$$$$
>  <compound>
CCN(C(=O)c1ccncc1)c1cccc(C(=O)Nc2c(Br)cc(C(F)(C(F)(F)F)C(F)(F)F)cc2OC(F)F)c1F [Compound 7]

>  <pest or weed control at 200 ppm>
≥ 80%

$$$$
>  <compound>
CCN(C(=O)c1cc[n+]([O-])cc1)c1cccc(C(=O)Nc2c(Br)cc(C(F)(C(F)(F)F)C(F)(F)F)cc2OC(F)F)c1F [Compound 17]

>  <pest or weed control at 200 ppm>
≥ 80%

$$$$
>  <compound>
CN(C(=O)c1ccncc1)c1cccc(C(=O)Nc2c(Cl)cc(C(F)(C(F)(F)F)C(F)(F)F)cc2Cl)c1F [Compound 10]

>  <pest or weed control at 200 ppm>
≥ 80%

$$$$
>  <compound>
CN(C(=O)c1ccncc1)c1cccc(C(=O)Nc2c(Cl)cc(C(F)(C(F)(F)F)C(F)(F)F)cc2Br)c1F [Compound 3]

>  <pest or weed control at 200 ppm>
≥ 80%

$$$$
>  <compound>
CCN(C(=O)c1cc[n+]([O-])cc1)c1cccc(C(=O)Nc2c(Br)cc(C(F)(C(F)(F)F)C(F)(F)F)cc2C2CC2)c1F [Compound 16]

>  <pest or weed control at 200 ppm>
≥ 80%

$$$$
>  <compound>
CCN(C(=O)c1ccncc1)c1cccc(C(=O)Nc2c(C)cc(C(F)(C(F)(F)F)C(F)(F)F)cc2OC(F)F)c1F [Compound 19]

>  <pest or weed control at 200 ppm>
≥ 80%

$$$$
>  <compound>
CCc1cc(C(F)(C(F)(F)F)C(F)(F)F)cc(Cl)c1NC(=O)c1cccc(N(CC)C(=O)c2ccncc2)c1F [Compound 13]

>  <pest or weed control at 200 ppm>
≥ 80%

$$$$
>  <compound>
CCc1cc(C(F)(C(F)(F)F)C(F)(F)F)cc(CC)c1NC(=O)c1cccc(N(CC)C(=O)c2cc[n+]([O-])cc2)c1F [Compound 5]

>  <pest or weed control at 200 ppm>
≥ 80%

$$$$
>  <compound>
CCN(C(=O)c1ccncc1)c1cccc(C(=O)Nc2c(Br)cc(C(F)(C(F)(F)F)C(F)(F)F)cc2C2CC2)c1F [Compound 15]

>  <pest or weed control at 200 ppm>
≥ 80%

$$$$
>  <compound>
CCN(C(=O)c1ccncc1)c1cccc(C(=O)Nc2c(Cl)cc(C(F)(C(F)(F)F)C(F)(F)F)cc2Br)c1F [Compound 1]

>  <pest or weed control at 200 ppm>
≥ 80%

$$$$
